Below, each entry is listed alongside its reported ADCC EC50 (pM), Daudi + PBMC.
subject-of-test: T1, human CD20 (human, UniProt P11836 1-297)
T1 sequence: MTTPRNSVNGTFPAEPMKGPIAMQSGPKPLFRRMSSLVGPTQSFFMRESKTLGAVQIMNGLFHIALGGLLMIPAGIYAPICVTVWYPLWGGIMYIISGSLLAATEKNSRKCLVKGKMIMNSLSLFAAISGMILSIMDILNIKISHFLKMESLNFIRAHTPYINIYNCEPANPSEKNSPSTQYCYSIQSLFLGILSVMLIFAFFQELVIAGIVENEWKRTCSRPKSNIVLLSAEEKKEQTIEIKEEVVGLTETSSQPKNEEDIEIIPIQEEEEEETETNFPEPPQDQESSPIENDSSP
test-name: cell-based or functional assay

- binder: "8G6-5 (antibody, V domains shown, Fully human IgG, constant region not specified; also called 8G6-5N) VH: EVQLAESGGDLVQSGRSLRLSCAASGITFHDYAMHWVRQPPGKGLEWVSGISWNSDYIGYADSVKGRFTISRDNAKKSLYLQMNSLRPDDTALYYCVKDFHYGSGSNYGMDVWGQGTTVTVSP VL: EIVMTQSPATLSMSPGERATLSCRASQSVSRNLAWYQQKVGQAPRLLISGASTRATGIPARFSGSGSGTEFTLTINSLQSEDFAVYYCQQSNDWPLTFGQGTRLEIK"
  readout-unit: "pM"
  ADCC EC50 (pM), Daudi + PBMC: 14.8
- binder: "10F2-13 (antibody, V domains shown, Fully human IgG, constant region not specified; also called 10F2-13N; ab 10F2-13) VH: EEQLVESGGDLVQPGRSLRLSCAASGFTFHDYTMHWVRQAPGKGLEWVSGISWNSGSLGYADSVKGRFTISRDNAKKSLYLQMNSLRAEDTALYYCAKDPSYGSGSYHSYYGMDVWGQGTTVTVSS VL: EIVLTQSPATLSLSPGERATLSCWASQSISRYLVWYQQKCGQAPRLLIYEASKRATGIPVRFSGSGSGTDFTLTISSLESEDFAVYYCQQRFNWPLTFGGGTKVEIK"
  readout-unit: "pM"
  ADCC EC50 (pM), Daudi + PBMC: 6.68
- binder: "6F6-1 (antibody, V domains shown, Fully human IgG, constant region not specified; also called 6F6-1N) VH: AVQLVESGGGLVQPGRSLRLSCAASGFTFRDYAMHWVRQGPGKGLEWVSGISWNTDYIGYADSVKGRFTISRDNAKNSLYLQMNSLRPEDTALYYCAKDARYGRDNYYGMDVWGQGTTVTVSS VL: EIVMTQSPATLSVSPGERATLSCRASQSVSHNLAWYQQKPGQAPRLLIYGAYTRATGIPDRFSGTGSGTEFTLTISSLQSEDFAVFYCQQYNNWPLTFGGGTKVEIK"
  readout-unit: "pM"
  ADCC EC50 (pM), Daudi + PBMC: 5.15
- binder: "9H4-12 (antibody, V domains shown, Fully human IgG, constant region not specified; also called 9H4-12N) VH: EVQLVESGGGLVQPGRSLRLSCAASGFTFDDYAMHWVRQVPGKGLEWVSGISWNSGSIGYADSVKGRFTISRDNAKNSLYLQMNSLRAEDTALYYCAKDMGYGNYYHYGMDVWGQGTTVTVSS VL: DIVLTQSPATLSLSPGERATLSCRASQSVSSYLAWYQQKPGQAPRLLICDASHRATRIPARFSGSGSGTDFTLTISSLEPEDFAVYYCQQRSNWPITFGQGTRLEIK"
  readout-unit: "pM"
  ADCC EC50 (pM), Daudi + PBMC: 33.8
